Test system: NCI-H226 lung
PROTOCOL TEXT: NCI-60 one-dose screen, 48 h (100 = growth as untreated, 0 = no growth, -100 = all killed)
MEASUREMENT CONDITIONS: 10 µM unless noted
About 83,000 compounds went through this panel and 20% of them were active in at least one assay; those are over-represented in the sample as a whole.
ASSAY ENDPOINT: growth (%)
Write the number in % without appending the unit.

# get_value(readout='growth', item= C/C(=C\c1csc(C)n1)[C@@H]1C[C@@H]2O[C@]2(C)CCC[C@H](C)[C@H](O)[C@@H](C)C(=O)C(C)(C)[C@@H](O)CC(=O)N1 ) -60.3

# get_value(readout='growth', item= COc1cccc(-n2cc(-c3nc(Cl)c4ccccc4n3)nn2)c1 ) 111

# get_value(readout='growth', item= Clc1ccc2c(c1)NC1(CCSc3ccccc31)n1nccc1-2 (stereo not given) ) 92.5

# get_value(readout='growth', item= O=S(=O)(NCCCNc1cc(-c2cn(-c3ccccc3)nc2-c2cccc(O)c2)ccn1)c1ccc(Br)cc1 ) 22.2

# get_value(readout='growth', item= CCC#CC[C@H]1C/C=C2/C(=O)C=C[C@@H]2C/C=C\CCCC(=O)O1 ) -26.6
